- Test system: Mycobacterium tuberculosis
- MEASUREMENT DESCRIPTION: Antitubercular activity against Mycobacterium tuberculosis H37Rv infected in mouse BMDM assessed as reduction in colony forming units at 4 times MIC incubated for 4 days measured after 4 weeks relative to control
- Format: functional
- Parameters: scale not given: the % may be the effect or the level left
OBSERVATION TYPE: Activity (%)
Report the figure in % without appending any unit label.

Worked cases, Activity given:
- COMPOUND: "COc1nc2ccccc2cc1C(c1cc2ccccc2nc1OC)C(O)(CCN(C)C)c1ccc2ccccc2c1 (centres undefined)"
  Activity [%]: 91
- COMPOUND: "CO[C@H]1/C=C/O[C@@]2(C)Oc3c(C)c(O)c4c(O)c(c(/C=N/N5CCN(C)CC5)c(O)c4c3C2=O)NC(=O)/C(C)=C\\C=C\\[C@H](C)[C@H](O)[C@@H](C)[C@@H](O)[C@@H](C)[C@H](OC(C)=O)[C@@H]1C"
  Activity [%]: 98

Reported Activity for COc1nc2ccccc2cc1C(c1cc2ccccc2nc1OC)C(O)(CCN(C)C)c1ccccc1 (centres undefined) : what is it?
90

# iterate: NNC(=O)c1ccncc1
98

---

- EXPERIMENTAL TARGET: ATP synthase
- MEASUREMENT DESCRIPTION: Inhibition of Mycobacterium tuberculosis ATP synthase
Cut-off 30 nM on IC50: below means satisfied, at or above means not satisfied.

- MOLECULE: "COc1nc2ccccc2cc1C(c1cc2ccccc2nc1OC)C(O)(CCN(C)C)c1ccccc1 (stereo not given)"
  LABEL: "not satisfied"
- MOLECULE: "C=CCOc1nc2ccccc2cc1C(c1cc2ccccc2nc1OCC=C)C(O)(CCN(C)C)c1ccc(Br)cc1 (stereo not given)"
  LABEL: "not satisfied"
- MOLECULE: "COc1nc2ccccc2cc1C(c1cc2ccccc2nc1OC)C(O)(CCN(C)C)c1cccc(Br)c1 (stereo not given)"
  LABEL: "not satisfied"

Please determine if C=CCOc1nc2ccccc2cc1C(c1cc2ccccc2nc1OCC=C)C(O)(CCN(C)C)c1ccccc1 (stereo not given) is below 30 nM in terms of IC50.
not satisfied

# iterate: COc1nc2ccccc2cc1C(c1cc2ccccc2nc1OC)C(O)(CCN(C)C)c1cccc2ccccc12 (stereo not given)
satisfied

# iterate: CN(C)CCC(O)(c1cccc(Br)c1)C1c2cc3ccccc3nc2OCC/C=C\CCOc2nc3ccccc3cc21 (stereo not given)
satisfied

# iterate: C=CCCOc1nc2ccccc2cc1C(c1cc2ccccc2nc1OCCC=C)C(O)(CCN(C)C)c1ccc(Br)cc1 (stereo not given)
not satisfied

# iterate: COc1nc2ccccc2cc1C(c1cc2ccccc2nc1OC)C(O)(CCN(C)C)c1ccc(Br)cc1 (stereo not given)
satisfied
